B1: HDV Ribozyme (parent)
chain: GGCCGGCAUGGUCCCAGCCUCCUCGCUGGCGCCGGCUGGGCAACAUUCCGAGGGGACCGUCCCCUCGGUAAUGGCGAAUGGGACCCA

variants of: B1; experiment: self-cleavage, relative activity (ratio to wild type); higher = more cleavage; co-transcriptional
Class satisfied: self-cleavage at least 0.2. Class not satisfied: self-cleavage below 0.2.

INSERT INTO assay_data (variant_designation, group_label) VALUES
  ('U12G C26U', 'satisfied'),
  ('U46G G53A', 'satisfied'),
  ('C66U A70U', 'satisfied'),
  ('U20G C62A', 'satisfied'),
  ('C36A G76A', 'satisfied'),
  ('C19G G67C', 'not satisfied'),
  ('C18G C62U', 'satisfied'),
  ('G6A G28A', 'not satisfied'),
  ('U27A A42G', 'satisfied'),
  ('G11A A45C', 'not satisfied'),
  ('G35A G55C', 'satisfied'),
  ('C18A C32U', 'not satisfied'),
  ('A16C C58G', 'satisfied'),
  ('C36G U47G', 'not satisfied'),
  ('G1C C44A', 'satisfied'),
  ('U72C G81U', 'not satisfied'),
  ('C7A U79A', 'satisfied'),
  ('G10U U79G', 'satisfied'),
  ('G25C G50A', 'not satisfied'),
  ('C66G C75U', 'not satisfied'),
  ('A16C C32G', 'satisfied'),
  ('G2U G50C', 'not satisfied');
